Data origin: patent US20230322908A1

koff by entry:
target: T1, recombinant human full-length TDP-43 (TAR DNA-binding protein 43), soluble (human, UniProt Q13148 1-414); experiment: SPR 8K, immobilized soluble TDP-43
T1 construct: Used on Luminex beads, coated on ELISA plates, and immobilized or injected in SPR; also called FL TDP-43; TDP-43 protein
T1 sequence (Q13148 whole entry): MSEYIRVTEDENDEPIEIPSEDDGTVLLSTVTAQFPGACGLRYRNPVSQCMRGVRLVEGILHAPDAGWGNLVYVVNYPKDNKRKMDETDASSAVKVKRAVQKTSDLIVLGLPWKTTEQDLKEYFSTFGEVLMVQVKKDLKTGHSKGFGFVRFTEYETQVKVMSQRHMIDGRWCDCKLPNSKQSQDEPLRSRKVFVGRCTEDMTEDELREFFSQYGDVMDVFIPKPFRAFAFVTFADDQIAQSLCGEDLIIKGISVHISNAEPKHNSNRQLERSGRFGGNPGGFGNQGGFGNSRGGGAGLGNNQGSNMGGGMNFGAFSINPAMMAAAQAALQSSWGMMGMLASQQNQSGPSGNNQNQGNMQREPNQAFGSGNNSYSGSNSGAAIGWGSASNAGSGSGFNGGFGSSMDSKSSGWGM
Output spec: scalar in s⁻¹, unitless text.

// worked examples, koff included
binder	property label	unit info	numeric result
hACI-7069-633B12-Ab1_H20L14 (IgG4) (antibody, V domains shown) VH: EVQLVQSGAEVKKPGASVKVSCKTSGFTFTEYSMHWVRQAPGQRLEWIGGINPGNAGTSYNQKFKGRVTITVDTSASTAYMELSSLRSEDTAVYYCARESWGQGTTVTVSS VL: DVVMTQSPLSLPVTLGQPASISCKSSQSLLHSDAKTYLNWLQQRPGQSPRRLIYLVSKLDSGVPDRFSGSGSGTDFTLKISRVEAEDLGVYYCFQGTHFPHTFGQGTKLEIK	koff	s⁻¹	4.4e-05
hACI-7069-633B12-Ab1_H19L18 (IgG4) (antibody, V domains shown) VH: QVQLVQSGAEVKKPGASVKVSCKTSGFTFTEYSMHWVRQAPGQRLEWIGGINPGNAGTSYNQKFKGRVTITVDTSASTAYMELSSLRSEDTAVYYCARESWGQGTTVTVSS VL: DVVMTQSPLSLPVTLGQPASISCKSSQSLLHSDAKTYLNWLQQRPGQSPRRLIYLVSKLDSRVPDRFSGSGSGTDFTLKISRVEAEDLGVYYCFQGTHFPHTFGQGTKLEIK	koff	s⁻¹	1.4e-05

Attention now turns to another entry.
// Input: hACI-7069-633B12-Ab1_H20L19 (IgG4) (antibody, V domains shown) VH: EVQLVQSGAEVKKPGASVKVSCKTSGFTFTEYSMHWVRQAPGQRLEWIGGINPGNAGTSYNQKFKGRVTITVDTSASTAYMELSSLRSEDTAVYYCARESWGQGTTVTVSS VL: DVVMTQSPLSLPVTLGQPASISCKSSQSLLHSDAKTYLNWLQQRPGQSPKRLIYLVSKLDSRVPDRFSGSGSGTDFTLKISRVEAEDLGVYYCFQGTHFPHTFGQGTKLEIK . Output its koff only.
1.9e-05
